These data points were gathered from patent US11963961B2.

Test system: non-cirrhotic subjects with NASH
Protocol description: Phase 2 trial of Compound 1 in NASH: standard lipid tests and NMR LipoProfile lipoproteins in fasting serum
Assay type: in vivo, human
Conditions: Compound 1 20 mg daily, W1; BL 1397

| Molecule | Assayed system | LDL-P (total LDL particles), median |
| --- | --- | --- |
| COc1ccccc1[C@H](Cn1c(=O)n(C(C)(C)C(=O)O)c(=O)c2c(C)c(-c3ncco3)sc21)OC1CCOCC1 [Compound 1] | non-cirrhotic subjects with NASH | 1260 nM |

----------
Test system: non-cirrhotic subjects with NASH
Protocol description: Phase 2 trial of Compound 1 in NASH: standard lipid tests and NMR LipoProfile lipoproteins in fasting serum
Type: in vivo, human
Conditions: Compound 1 20 mg daily, W4; BL 1397

| Compound | LDL-P (total LDL particles), median [nM] |
| --- | --- |
| COc1ccccc1[C@H](Cn1c(=O)n(C(C)(C)C(=O)O)c(=O)c2c(C)c(-c3ncco3)sc21)OC1CCOCC1 [Compound 1] | 1360 |

----------
Test system: non-cirrhotic subjects with NASH
Protocol description: Phase 2 trial of Compound 1 in NASH: standard lipid tests and NMR LipoProfile lipoproteins in fasting serum
Format: in vivo, human
Conditions: Compound 1 20 mg daily, W12; BL 1397
Recorded endpoint: LDL-P (total LDL particles), median (nM)

| Smiles entry | Numeric readout |
| --- | --- |
| COc1ccccc1[C@H](Cn1c(=O)n(C(C)(C)C(=O)O)c(=O)c2c(C)c(-c3ncco3)sc21)OC1CCOCC1 | 1230 |
